The reported numbers originate from the supplement of paper PMC11246515.

Assay: total protein half-life in vivo (active degradation + dilution); higher = more stable protein
Settings: wild type E. coli NCM3722; growth: N-lim chemostat; doubling time 12 h
# total protein half-life in vivo values compiled below

# sequence-content, total protein half-life in vivo / h
measured = [
    ("MTIAIVIGTHGWAAEQLLKTAEMLLGEQENVGWIDFVPGENAETLIEKYNAQLAKLDTTKGVLFLVDTWGGSPFNAASRIVVDKEHYEVIAGVNIPMLVETLMARDDDPSFDELVALAVETGREGVKALKAKPVEKAAPAPAAAAPKAAPTPAKPMGPNDYMVIGLARIDDRLIHGQVATRWTKETNVSRIIVVSDEVAADTVRKTLLTQVAPPGVTAHVVDVAKMIRVYNNPKYAGERVMLLFTNPTDVERLVEGGVKITSVNVGGMAFRQGKTQVNNAVSVDEKDIEAFKKLNARGIELEVRKVSTDPKLKMMDLISKIDK", 12),
    ("MWIGIISLFPEMFRAITDYGVTGRAVKNGLLSIQSWSPRDFTHDRHRTVDDRPYGGGPGMLMMVQPLRDAIHAAKAAAGEGAKVIYLSPQGRKLDQAGVSELATNQKLILVCGRYEGIDERVIQTEIDEEWSIGDYVLSGGELPAMTLIDSVSRFIPGVLGHEASATEDSFAEGLLDCPHYTRPEVLEGMEVPPVLLSGNHAEIRRWRLKQSLGRTWLRRPELLENLALTEEQARLLAEFKTEHAQQQHKHDGMA [P0A873]", 7.45),
]
